// reported Ki for each item listed
Biological target: KAT8 Full length enzyme (Homo sapiens (Human), UniProt Q9H7Z6)
Sequence (Q9H7Z6 whole entry): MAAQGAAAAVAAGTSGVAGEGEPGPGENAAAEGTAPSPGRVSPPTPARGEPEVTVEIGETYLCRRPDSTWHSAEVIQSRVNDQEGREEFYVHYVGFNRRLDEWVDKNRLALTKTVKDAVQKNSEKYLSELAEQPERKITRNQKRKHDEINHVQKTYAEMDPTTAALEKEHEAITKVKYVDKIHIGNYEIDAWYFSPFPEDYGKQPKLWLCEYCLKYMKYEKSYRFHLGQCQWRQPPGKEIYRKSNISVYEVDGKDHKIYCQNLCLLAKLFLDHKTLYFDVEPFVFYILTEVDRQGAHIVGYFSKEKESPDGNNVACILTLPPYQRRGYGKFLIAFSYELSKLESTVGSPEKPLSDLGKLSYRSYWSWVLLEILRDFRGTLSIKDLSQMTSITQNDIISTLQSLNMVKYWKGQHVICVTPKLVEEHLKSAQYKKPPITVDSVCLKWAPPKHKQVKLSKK
Experiment: KAT8 assay (SAMDI-MS acetylation of H3 1-21 peptide)
Format: biochemical
Settings: Morrison equation fit; replicate number in parentheses; read-out: KAT8 Ki (nM) (replicate number)

# compound, censoring sign, Ki (nM)
rows = [
    ("CCc1cnc(Nc2cc3onc(NS(=O)(=O)c4c(OC)cccc4OC)c3cc2OC)nc1 [Example 107]", ">", 13000),
    ("CCOc1cc(C)ccc1S(=O)(=O)Nc1noc2cc(Nc3cc(C(C)C)[nH]n3)c(OC)cc12 [Example 78]", "=", 8730),
    ("COc1cccc(OC)c1S(=O)(=O)Nc1noc2cc(Nc3ccccn3)cc(OC)c12 [Example 18]", "=", 5960),
    ("CCOc1cc(F)ccc1S(=O)(=O)Nc1noc2cc(Nc3cc(C4CC4)n[nH]3)c(F)c(OC)c12 [Example 76]", ">", 13000),
    ("COc1cc2c(NS(=O)(=O)c3c(OC)cc(-c4ccccn4)cc3OC)noc2cc1Nc1cc(C2CC2)n[nH]1 [Example 118]", "=", 731),
    ("COc1cc2c(NS(=O)(=O)c3c(OC)cc(-c4ncccn4)cc3OC)noc2cc1Nc1cc(C2CC2)n[nH]1 [Example 211]", "=", 1350),
    ("CCOc1cc(C)c(F)cc1S(=O)(=O)Nc1noc2cc(Nc3cc[nH]n3)c(OC)cc12 [Example 77]", "=", 2760),
    ("COc1cc2c(NS(=O)(=O)c3c(OC)cc(-c4ncco4)cc3OC)noc2cc1Nc1cc(C2CC2)n[nH]1 [Example 08]", "=", 1620),
]

###

Molecular target: KAT6A Full length enzyme (Homo sapiens (Human), UniProt Q92794)
Sequence (Q92794 other isoform, or with tags, fused parts or gaps): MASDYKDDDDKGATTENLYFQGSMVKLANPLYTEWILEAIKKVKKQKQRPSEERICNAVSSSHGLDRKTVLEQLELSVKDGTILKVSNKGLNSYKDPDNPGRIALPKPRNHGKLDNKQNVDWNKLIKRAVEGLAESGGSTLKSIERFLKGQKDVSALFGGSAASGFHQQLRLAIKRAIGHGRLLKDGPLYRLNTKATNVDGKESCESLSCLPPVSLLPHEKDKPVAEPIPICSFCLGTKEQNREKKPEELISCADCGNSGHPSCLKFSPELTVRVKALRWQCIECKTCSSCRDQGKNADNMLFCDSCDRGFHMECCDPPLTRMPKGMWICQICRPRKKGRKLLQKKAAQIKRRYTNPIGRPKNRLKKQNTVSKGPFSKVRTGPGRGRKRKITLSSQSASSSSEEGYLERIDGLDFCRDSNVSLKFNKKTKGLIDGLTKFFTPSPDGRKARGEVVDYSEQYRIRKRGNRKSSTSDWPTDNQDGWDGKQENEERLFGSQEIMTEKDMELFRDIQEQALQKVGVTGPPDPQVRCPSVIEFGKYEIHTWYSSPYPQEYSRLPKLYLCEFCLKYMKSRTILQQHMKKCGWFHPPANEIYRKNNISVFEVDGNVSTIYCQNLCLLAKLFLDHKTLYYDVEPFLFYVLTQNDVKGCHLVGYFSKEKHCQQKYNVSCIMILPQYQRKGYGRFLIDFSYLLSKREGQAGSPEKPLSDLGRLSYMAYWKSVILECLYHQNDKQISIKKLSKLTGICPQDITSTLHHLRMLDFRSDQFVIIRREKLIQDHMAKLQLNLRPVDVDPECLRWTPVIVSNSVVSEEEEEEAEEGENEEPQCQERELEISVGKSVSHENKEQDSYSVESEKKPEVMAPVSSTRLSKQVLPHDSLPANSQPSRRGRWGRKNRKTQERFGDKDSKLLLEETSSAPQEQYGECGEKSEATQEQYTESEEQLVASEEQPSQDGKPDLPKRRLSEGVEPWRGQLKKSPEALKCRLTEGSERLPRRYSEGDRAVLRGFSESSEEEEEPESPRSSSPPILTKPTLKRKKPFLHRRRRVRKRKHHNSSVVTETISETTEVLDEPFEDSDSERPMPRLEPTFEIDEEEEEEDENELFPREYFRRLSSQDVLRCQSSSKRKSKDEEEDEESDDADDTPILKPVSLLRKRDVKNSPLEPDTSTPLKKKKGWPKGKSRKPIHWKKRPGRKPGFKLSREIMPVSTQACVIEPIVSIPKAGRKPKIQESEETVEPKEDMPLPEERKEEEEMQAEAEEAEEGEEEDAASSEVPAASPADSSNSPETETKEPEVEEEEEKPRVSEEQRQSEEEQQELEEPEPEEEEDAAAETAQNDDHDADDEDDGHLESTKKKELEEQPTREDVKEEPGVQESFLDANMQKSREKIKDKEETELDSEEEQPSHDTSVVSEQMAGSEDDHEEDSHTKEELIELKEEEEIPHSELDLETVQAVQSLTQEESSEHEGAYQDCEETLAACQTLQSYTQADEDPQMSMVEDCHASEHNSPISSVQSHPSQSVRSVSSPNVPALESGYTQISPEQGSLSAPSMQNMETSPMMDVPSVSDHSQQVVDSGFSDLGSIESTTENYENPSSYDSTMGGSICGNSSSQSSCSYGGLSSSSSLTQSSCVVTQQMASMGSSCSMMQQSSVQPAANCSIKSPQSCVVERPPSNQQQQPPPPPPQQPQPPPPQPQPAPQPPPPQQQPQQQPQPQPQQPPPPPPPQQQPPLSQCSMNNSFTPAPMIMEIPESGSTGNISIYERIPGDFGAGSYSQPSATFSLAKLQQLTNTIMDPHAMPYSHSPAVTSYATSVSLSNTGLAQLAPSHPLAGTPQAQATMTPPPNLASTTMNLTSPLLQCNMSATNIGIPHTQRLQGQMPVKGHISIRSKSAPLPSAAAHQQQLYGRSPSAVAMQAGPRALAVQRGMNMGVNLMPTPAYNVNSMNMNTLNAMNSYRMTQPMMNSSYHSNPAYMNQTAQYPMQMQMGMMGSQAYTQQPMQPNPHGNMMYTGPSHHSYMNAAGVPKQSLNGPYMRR
Assay: KAT6A assay (SAMDI-MS acetylation of H3 1-21 peptide)
Type: biochemical
Conditions: replicate number in parentheses; read-out: KAT6A Ki (nM) (replicate)
measured metric: Ki (nM)

# molecule, study system, quantitative readout
measured = [
    ("COc1cc2c(NS(=O)(=O)c3c(OC)cc(C(=O)N4CC[C@H](F)C4)cc3OC)noc2cc1Nc1cc(C2CC2)n[nH]1", "KAT6A Full length enzyme (Homo sapiens (Human), UniProt Q92794)", 1.2),
    ("COc1cc2c(NS(=O)(=O)c3c(OC)cc(N4C(=O)CCC45CCC5)cc3OC)noc2cc1Nc1cc(C2CC2)n[nH]1", "KAT6A Full length enzyme (Homo sapiens (Human), UniProt Q92794)", 0.8),
    ("COc1cc2c(NS(=O)(=O)c3c(OC)cc(C(=O)N4CC(F)C4)cc3OC)noc2cc1Nc1cc(C2CC2)n[nH]1", "KAT6A Full length enzyme (Homo sapiens (Human), UniProt Q92794)", 1),
    ("COc1cc2c(NS(=O)(=O)c3c(OC)cc(C4CCCOC4)cc3OC)noc2cc1Nc1cc(C2CC2)n[nH]1 (single isomer, unassigned) [Example 268]", "KAT6A Full length enzyme (Homo sapiens (Human), UniProt Q92794)", 1.2),
    ("COc1cc2c(NS(=O)(=O)c3c(OC)cc(C(C)OC)cc3OC)noc2cc1Nc1cc(C2CC2)[nH]n1 (single isomer, unassigned) [Example 273]", "KAT6A Full length enzyme (Homo sapiens (Human), UniProt Q92794)", 0.6),
    ("COc1cc2c(NS(=O)(=O)c3c(OC)cc(N4C(=O)CCC4(C)C)cc3OC)noc2cc1Nc1cc(C2CC2)n[nH]1", "KAT6A Full length enzyme (Homo sapiens (Human), UniProt Q92794)", 1.1),
]
